Overview of reported pIC50 across a group of compounds:
target: Prostaglandin E2 receptor EP3 subtype (Homo sapiens); experiment: Displacement of [3H]PGE2 from human EP3 receptor
Sequence (P43115 whole entry): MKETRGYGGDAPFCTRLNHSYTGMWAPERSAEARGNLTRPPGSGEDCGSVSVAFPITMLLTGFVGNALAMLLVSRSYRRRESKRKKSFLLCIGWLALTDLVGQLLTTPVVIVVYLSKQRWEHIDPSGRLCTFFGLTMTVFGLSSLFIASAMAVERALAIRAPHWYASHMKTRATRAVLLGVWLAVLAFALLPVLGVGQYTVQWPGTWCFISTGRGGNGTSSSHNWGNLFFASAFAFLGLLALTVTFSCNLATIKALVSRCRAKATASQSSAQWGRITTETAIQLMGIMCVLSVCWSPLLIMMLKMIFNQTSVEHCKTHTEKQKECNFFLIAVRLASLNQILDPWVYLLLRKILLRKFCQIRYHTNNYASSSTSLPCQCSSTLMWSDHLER
# pIC50 is unitless: minus log10 of the molar concentration; print number only

Sample records with pIC50:
Problem: Look up and state reported pIC50 for CC12CCCC(/C=C/C(=O)NS(=O)(=O)c3cc(F)c(F)cc3F)=C1N(Cc1ccc(F)c(F)c1)C(=O)C2 (stereo not drawn)
Result: 8.11

Problem: Tell me pIC50 reported for CC12CCCC(/C=C/C(=O)NS(=O)(=O)c3ccc(F)c(F)c3)=C1N(Cc1ccc(Cl)cc1Cl)C(=O)C2 (stereo not drawn)
Result: 8.47

Others:
Problem: Given the compound CC12CCCC(/C=C/C(=O)NS(=O)(=O)c3cc(Cl)c(Cl)s3)=C1N(Cc1ccc(Cl)cc1Cl)C(=O)C2 (stereo not drawn) , write its reported pIC50.
Result: 8.64

---

experiment: Metabolic stability in human liver microsomes after 30 mins; assay type: ADME, Microsome; settings: read-out: Stability
OBSERVED_PROPERTY: remaining at 0.5 h (%)
Please give a number only; it is taken to be in %.

Problem: Annotate the compound CC12CCCC(/C=C/C(=O)NS(=O)(=O)c3cc(Cl)c(Cl)s3)=C1N(Cc1ccc(F)cc1)C(=O)C2 (stereo not given) with its measured remaining at 0.5 h.
Result: 74

Problem: Name the recorded remaining at 0.5 h of the compound listed here: COc1cccc(CN2C(=O)CC3(C)CCCC(/C=C/C(=O)NS(=O)(=O)c4ccc(F)c(F)c4)=C23)c1 (stereo not given)
Result: 76

Problem: Quote remaining at 0.5 h reported for CC12CCCC(/C=C/C(=O)NS(=O)(=O)c3cc(Cl)cc(Cl)c3)=C1N(Cc1ccc(Cl)cc1Cl)C(=O)C2 (stereo not given) please.
Result: 70

Problem: Report remaining at 0.5 h, nothing else, for this compound: COc1cccc(CN2C(=O)CC3(C)CCCC(/C=C/C(=O)NS(=O)(=O)c4cc(F)c(F)cc4F)=C23)c1 (stereo not given)
Result: 76

***
Problem: Query remaining at 0.5 h for CC12CCCC(/C=C/C(=O)NS(=O)(=O)c3cc(F)c(F)cc3F)=C1N(Cc1ccc(Cl)cc1Cl)C(=O)C2 (stereo not given)
Result: 62

Problem: Give the value of remaining at 0.5 h reported for the following: CC12CCCC(/C=C/C(=O)NS(=O)(=O)c3cccs3)=C1N(Cc1ccc(Cl)cc1Cl)C(=O)C2 (stereo not given)
Result: 78

Problem: For CC12CCCC(/C=C/C(=O)NS(=O)(=O)c3cc(F)c(F)cc3F)=C1N(Cc1ccc(F)c(F)c1)C(=O)C2 (stereo not given) , write its remaining at 0.5 h.
Result: 75

---

molecular target: Prostaglandin E2 receptor EP3 subtype (Homo sapiens) (UniProt P43115); experiment: Ratio of IC50 for human EP3 receptor in presence of 10% human serum to IC50 for human EP3 receptor in buffer
Sequence (P43115 whole entry): as above
Known fold change (FC) of a selection of compounds
I only need the number, thanks.

Problem: Annotate the compound CC12CCCC(/C=C/C(=O)NS(=O)(=O)c3ccc(Cl)s3)=C1N(Cc1ccc(Cl)cc1Cl)C(=O)C2 (configuration not stated) with its measured fold change (FC).
Result: 6.9

Problem: Check the records and state fold change (FC) for COC(=O)C12CCCC(/C=C/C(=O)NS(=O)(=O)c3cc(F)c(F)cc3F)=C1N(Cc1ccc(Cl)cc1Cl)C(=O)C2 (configuration not stated)
Result: 47.1

Problem: Provide one value: measured fold change (FC) of CC12CCCC(/C=C/C(=O)NS(=O)(=O)c3cc(F)c(F)cc3F)=C1N(Cc1cccc(Cl)c1Cl)C(=O)C2 (configuration not stated)
Result: 5.8

Problem: Supply recorded fold change (FC) for COC(=O)C12CCCC(/C=C/C(=O)NS(=O)(=O)c3cc(Cl)c(Cl)s3)=C1N(Cc1ccc(F)c(F)c1)C(=O)C2 (configuration not stated) here.
Result: 308

Problem: Identify the reported fold change (FC) for the following entry. CC12CCCC(/C=C/C(=O)NS(=O)(=O)c3cc(Cl)c(Cl)s3)=C1N(Cc1ccc3ccccc3c1)C(=O)C2 (configuration not stated)
Result: 7.4

***
Problem: State, in one line, measured fold change (FC) of CC12CCCC(/C=C/C(=O)NS(=O)(=O)c3cc(F)c(F)cc3F)=C1N(Cc1ccc(F)c(F)c1)C(=O)C2 (configuration not stated)
Result: 9.3

Problem: Look up and report measured fold change (FC) for this entry: CC12CCCC(CCC(=O)NS(=O)(=O)c3cc(F)c(F)cc3F)=C1N(Cc1ccc(F)c(F)c1)C(=O)C2 (configuration not stated)
Result: 33.2
